Every entry's value here was drawn from PubChem BioAssay.

# key: entry, value: composite z-score
- Test system: Wnt5a (protein binding on small-molecule microarray)
- ASSAY_OVERVIEW: Wnt5a binders on small-molecule microarray, primary screen, biophysical, 635/667 nm fluorescence (AID 1142);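 note: fluorescence read at 667 nm with signal to noise per printed feature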
- RUN_CONDITIONS: 635 nm fluorescence, higher = more signal
The response must contain the number and no unit.

Illustrative cases are given below, each with its answer.
[
  {
    "MOLECULE": "CC(C)(C)OC(=O)CC[C@]1(C(N)=O)N=C(c2ccc(OCCCO)cc2)O[C@H]1c1ccccc1N=[N+]=[N-]",
    "composite z-score": 0.641
  },
  {
    "MOLECULE": "C=CCOC(=O)[C@@H]1[C@H]2C(=O)O[C@H](c3ccccc3)[C@H](c3ccccc3)N2[C@H](c2ccc(OCCOC(=O)[C@@H]3C[C@@H]4C(=O)N[C@@H](CC(C)C)C(=O)N4[C@@H]3c3ccc(O)cc3)cc2)[C@@]12C(=O)Nc1ccc(I)cc12",
    "composite z-score": 0.601
  }
]

Report composite z-score for C=C(C)C1CN([C@H](CO)c2ccccc2)C(=O)/C1=C\c1ccccc1 (stereo not given in full)
-0.0623

Report composite z-score for CC(C)C[C@@H]1NC(=O)[C@@H]2C[C@H](C(=O)NCCCCCCNC(=O)CS)[C@H](c3ccc(O)cc3)N2C1=O
0.841

Report composite z-score for [N-]=[N+]=Nc1ccccc1C[C@@]1(C(=O)NCC(O)CO)N=C(c2ccc(OCCCO)cc2)O[C@@H]1c1ccccc1N=[N+]=[N-] (stereo not given in full)
1.28

Report composite z-score for C=C[C@H](OC)[C@@H](O)c1ccc(OC)c(O)c1
-0.444

Report composite z-score for COC(=O)[C@@]1(Cc2ccc(F)cc2)[C@H]2c3cc(C(=O)N4CCCC4)n(Cc4ccc(C(F)(F)F)nc4)c3C[C@H]2CN1C(=O)c1ccccc1
0.406

Report composite z-score for COCCCNC(=O)[C@]1(Cc2ccccc2N=[N+]=[N-])N=C(c2ccc(OCCCO)cc2)O[C@@H]1c1ccccc1
0.637

Report composite z-score for COc1cc2c(cc1OC)CN(C(=O)[C@@H]1[C@H]3C(=O)O[C@H](c4ccccc4)[C@H](c4ccccc4)N3[C@H](c3ccc(O)cc3)[C@@]13C(=O)Nc1ccc(C#CC4=CCCCC4)cc13)CC2
0.236

Report composite z-score for COc1ccc([Si](C)(C)[C@H]2[C@H](CC(=O)N3CCC[C@H]3CO)O[C@@]3(C(=O)N(C)c4c(Br)cc(C)cc43)[C@@H]2C)cc1
1.55

* * *

- ASSAY_OVERVIEW: RPMI8226 myeloma cell viability, profiling panel, resazurin fluorescence, basal, 24 h, PK04 Diversity Set (AID 1180);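 note: RPMI8826 multiple myeloma cell line at 5000 cells per well; test concentration not given here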
- RUN_CONDITIONS: higher = more signal
RESULT_TYPE: z-score

Illustrative cases are given below, each with its answer.
[
  {
    "COMPOUND": "O=C(NCCN1CCOCC1)[C@@H]1c2ccccc2C(=O)N(CC23CC4CC(CC(C4)C2)C3)[C@H]1c1ccc(CO)cc1",
    "RESULT_TYPE": "z-score",
    "REPORTED_RESULT": 0.96
  },
  {
    "COMPOUND": "COC(=O)Cn1c(C(=O)N(C)C)cc2c1C[C@H]1CN(C(=O)c3ccccc3)[C@@](Cc3ccccc3)(C(=O)OC)[C@@H]21",
    "RESULT_TYPE": "z-score",
    "REPORTED_RESULT": 1.09
  },
  {
    "COMPOUND": "C[N+](C)(C)CCCC[C@@H]1NC(=O)[C@H]2C[C@@H](C(=O)O)[C@@H](c3ccc(O)cc3)N2C1=O",
    "RESULT_TYPE": "z-score",
    "REPORTED_RESULT": 0.925
  },
  {
    "COMPOUND": "CCOC(=O)C[C@H]1[C@H](OC(=O)c2cc3ccccc3oc2=O)[C@@H](NC(=O)c2ccc(-c3ccccc3)cc2)c2cc(OCCCO)ccc2N1C(=O)Cc1ccc(OC)cc1",
    "RESULT_TYPE": "z-score",
    "REPORTED_RESULT": -0.0232
  },
  {
    "COMPOUND": "COCCOC(=O)N1C(=O)[C@@]2(c3cc(C#CCCO)ccc31)[C@H](C(=O)N1CCN(c3ncccn3)CC1)[C@H]1C(=O)O[C@H](c3ccccc3)[C@H](c3ccccc3)N1[C@@H]2c1ccc(OCCO)cc1",
    "RESULT_TYPE": "z-score",
    "REPORTED_RESULT": 0.555
  }
]

Report z-score for C[N+](C)(C)CCCC[C@@H]1NC(=O)[C@H]2C[C@@H](C(=O)NCCCCCN)[C@@H](c3ccc(O)cc3)N2C1=O
1.24

Report z-score for COc1cc2c(cc1O)C(C)N(Cc1sc3ccccc3c1Cl)CC2 (configuration not stated)
-0.0875
